- System: SN12C renal
- experiment: NCI-60 one-dose screen, 48 h (100 = growth as untreated, 0 = no growth, -100 = all killed)
- study.conditions: 10 µM unless noted
About 83,000 compounds went through this panel and 20% of them were active in at least one assay; those are over-represented in the sample as a whole. Activity calls are given as the source filed them. How the source made its calls: active means growth percent below 10; inactive means the rest.
Quick reference: growth of the listed items.

Example results:
COc1cc(OC)c(S(N)(=O)=O)cc1C(=O)/C=C/c1ccc(Cl)cc1    16% (inactive)
CCCCCCCn1cc2c(NCCc3ccccc3)ncnc2n1    93.4% (inactive)

For this molecule ( COc1c(N2CC3CCCNC3C2)c(F)cc2c(=O)c(C(=O)N/N=C/c3c[nH]c4ccccc34)cn(C3CC3)c12 (stereo not drawn) ), measured growth is 95.7% (inactive)

====

Some compounds, each annotated with its measured growth.
- Test system: 786-0 renal
- experiment: NCI-60 one-dose screen, 48 h (100 = growth as untreated, 0 = no growth, -100 = all killed)
- study.conditions: 10 µM unless noted
Compounds without any hit were thinned out: in the full panel of roughly 83,000, 20% have a hit. Active and inactive are the calls of the source. How the source made its calls: active means growth percent below 10; inactive means the rest.

O=C(CN1CCN(c2cc(=O)n(-c3ccccc3)c3ccccc23)CC1)Nc1nc(-c2ccc(Cl)cc2)cs1    67.6% (inactive)
CCN(CC)c1ccc2c(c1)Oc1nc(N)c(C#N)c(N)c1C2Sc1ccc(F)cc1 (configuration not stated)    -83.8% (active)
CCCCCCCn1cc2c(NCCc3ccccc3)ncnc2n1    99.5% (inactive)
Cc1ccc(-n2c(/C=C3\C(=O)Nc4ccccc43)ccc2CO)cc1    101% (inactive)

Short answer for NC(N)=Nc1ccc(Oc2cccc(NC(N)=Nc3ccc(Cl)c(C(F)(F)F)c3)c2)cn1 : growth was 70.3% (inactive)

COc1cc(/C=N/NC(=O)c2cn(C3CC3)c3c(OC)c(N4CC5CCCNC5C4)c(F)cc3c2=O)ccc1O (configuration not stated) yielded growth of -62.2% (active)

====

Listing of recorded growth by entry.
- Test system: NCI-H460 lung
- experiment: NCI-60 one-dose screen, 48 h (100 = growth as untreated, 0 = no growth, -100 = all killed)
- study.conditions: 10 µM unless noted
- Description: Growth inhibition of the NCI-H460 human Non-Small Cell Lung tumor cell line is measured as a screen for anti-cancer activity. Cells are grown in 96 well plates and exposed to the test compound for 48 hours. Compounds are tested at a single concentration, which is 10^-5 M for most compounds. The reported endpoint is percent growth (GI% or GIPRCNT), where numbers from 0 - 100% represent growth inhibition, and numbers from -100% - 0 represent cell death. […]
About 83,000 compounds went through this panel and 20% of them were active in at least one assay; those are over-represented in the sample as a whole.
Quick note: give the figure in %, leave out the unit.

# growth of O=C1CCCc2nc(Nc3ccc(S(=O)(=O)Nc4ccc([N+](=O)[O-])cc4)cc3)ncc21 = 103

====

As shown below, each of these compounds has a reported growth value.
- System: PC-3 prostate
- experiment: NCI-60 one-dose screen, 48 h (100 = growth as untreated, 0 = no growth, -100 = all killed)
- study.conditions: 10 µM unless noted
- Description: Growth inhibition of the PC-3 human tumor cell line is measured as a screen for anti-cancer activity. Cells are grown in 96 well plates and exposed to the test compound for 48 hours. Compounds are tested at a single concentration, which is 10^-5 M for most compounds. The reported endpoint is percent growth (GI% or GIPRCNT), where numbers from 0 - 100% represent growth inhibition, and numbers from -100% - 0 represent cell death. For example, a value of 40 represents 60% growth inhibition. […]
This is part of a sample that, as a whole, favours compounds with a hit. Of some 83,000 tested, about 20% had one in any assay. Active and inactive are the calls of the source. The calls were made as follows: active = growth percent below 10; inactive = the rest.

Solved entries (count: 8):
C=CCN(C)S(=O)(=O)/N=C1\NC(=O)NC1=C(Cl)Cl    47% (inactive)
CCCCCc1ccc(S(=O)(=O)Nc2cc(-c3csc(NC(=O)CN4CCN(C)CC4)n3)ccc2N2CCN(C)CC2)cc1    29.6% (inactive)
CC(=O)C1=C(C)NC(NN)=NC1c1cccc(Cl)c1 (configuration not stated)    96.9% (inactive)
Cc1ccc(NC(=O)c2ccc(CN3CCOCC3)c(C(F)(F)F)c2)cc1Oc1ccc(-c2[nH]nc3ncnc(N)c23)cc1    43.4% (inactive)
COc1ccc(/C=N/NC2=NC3C(S2)N(C)C(=O)N3C)cc1 (configuration not stated)    32.1% (inactive)
O=C(CSc1nc2ccccc2c(=O)n1-c1ccc(Cl)cc1)N/N=C/c1ccc(N2CCCCC2)cc1    78.6% (inactive)
O=C(c1ccc(O)cc1)[C@@H]1CN[C@@]2(C(=O)Nc3ccccc32)[C@H]1c1ccc(F)cc1    88.8% (inactive)
CC(C)(O)c1cncc(-c2ccc3ncnc(NCc4ccccc4)c3c2)c1    84.1% (inactive)

Measured growth, NC(N)=Nc1ccc(Oc2cccc(Nc3ccc(Br)c(C(F)(F)F)c3)c2)cc1 : 1.98% (active)

Briefly, growth measured for Cc1ccc(C2=Nn3c(nnc3-c3ccccc3)SC2)cc1 : 35.2% (inactive)

Note to self: growth recorded for COc1ccccc1NC1=C(Cl)C(=O)c2nc(C)ccc2C1=O was 27.4% (inactive)

Field growth (entry O=C1CCC(N2C(=O)c3ccc(NS(=O)(=O)c4ccccc4OC(F)(F)F)cc3C2=O)C(=O)N1 (configuration not stated) ) reads 46.4% (inactive)

The value of growth measured for the compound COc1cc(/C=C2\C(=O)Nc3ccccc32)ccc1OCc1ccc(Cl)cc1 turned out to be 94.8% (inactive)

Note to self: growth recorded for C=CCn1c(-c2nc3ccc(C(=C(C#N)C#N)c4ccccc4)cc3[nH]2)cc2cc(Br)ccc21 was 31.5% (inactive)

What the record says about NS(=O)(=O)c1ccc(-n2cc(CN3CCNCC3)nn2)cc1 : growth is 102% (inactive)

Sure, the documented growth for CCOC(=O)c1c(Nc2ccccc2)nn2c(-c3ccc(OC)cc3)ccnc12 is 99.2% (inactive)

Input C=C(C=O)[C@@H]1CC[C@]2(CO)CC[C@]3(C)[C@H](CC[C@@H]4[C@@]5(C)CCCNC(C)(C)[C@@H]5CC[C@]43C)[C@@H]12 . Output growth: 11.4% (inactive)

The measured growth associated with C=C(C)[C@@H]1CC[C@]2(C(=O)NCCCCCN(CCC#N)CCC#N)CC[C@]3(C)[C@H](CC[C@@H]4[C@@]5(C)CCC(=O)C(C)(C)[C@@H]5CC[C@]43C)[C@@H]12 reads 92.3% (inactive)

Value of measured growth for the entry O=C(NNc1nc2cc(F)ccc2n2c(CN3CC4CNCC4C3)ccc12)c1cnccn1 (configuration not stated) : 27.2% (inactive)

Sample c1cn2c(ccc3nc(-c4cn[nH]c4)c4c(c32)CCCC4)n1 ; growth observed: 48.3% (inactive)

# growth of Clc1ccc(N/N=c2/oc3ccccc3cc2-c2cc3ccccc3[nH]2)cc1 = 63.9% (inactive)

So, C=C1CC[C@@H]2[C@]3(C)COC(c4ccccc4)O[C@@H]3CC[C@@]2(C)[C@@H]1C/C=C1/C(=O)OC[C@H]1O (some centres not stated) ? Its growth was 82.4% (inactive)
